Taken from patent US11090304B2.

# target.or.test.system: GDP-bound KRAS protein (aa 1-169), containing both G12C and C118A amino acid substitutions (Homo sapiens, UniProt P01116, C118A/G12C)
# Sequence (P01116 1-169 isoform P01116-2 G12C/C118A): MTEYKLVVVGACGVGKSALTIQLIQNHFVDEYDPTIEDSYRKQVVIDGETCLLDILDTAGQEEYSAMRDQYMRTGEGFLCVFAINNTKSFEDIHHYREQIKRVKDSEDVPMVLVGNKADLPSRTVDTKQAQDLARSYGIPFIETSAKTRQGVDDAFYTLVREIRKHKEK
# measurement.description: Coupled nucleotide exchange assay (SOS-mediated, AlphaScreen)
# Format: biochemical
# conditions: 5 min compound pre-incubation
measured.parameter: Coupled exchange IC50 (5 min)

Exercise: Look up and report measured Coupled exchange IC50 (5 min) for this entry: C=CC(=O)N1C[C@H](C)N(c2nc(=O)n(-c3c(C)ccnc3C(C)C)c3nc(-c4c(N)cccc4F)c(Cl)cc23)[C@@H](C)C1 (atropisomer, axis not shown; (M))
Key: 0.015 | nda μM

Exercise: Look up and report measured Coupled exchange IC50 (5 min) for this entry: C=CC(=O)N1CCN(c2nc(=O)n(-c3nccnc3C(C)(C)C)c3nc(-c4c(O)cccc4F)c(Cl)cc23)[C@@H](C)C1 [Example 55-23]
Key: 0.208 | nda μM

Exercise: Look up and report measured Coupled exchange IC50 (5 min) for this entry: C=CC(=O)N1CCN(c2nc(=O)n(-c3nccnc3C(C)(C)C)c3nc(-c4c(O)cccc4F)c(Cl)cc23)[C@@H](C)C1 (single isomer, unassigned) [Example 55-23-1]
Key: 18.55 | nda μM

###

# target.or.test.system: GDP-bound KRAS protein (aa 1-169), containing both G12C and C118A amino acid substitutions (Homo sapiens, UniProt P01116, C118A/G12C)
# measurement.description: Coupled nucleotide exchange assay (SOS-mediated, AlphaScreen)
# Type: biochemical
# conditions: 5 min compound pre-incubation
Coupled exchange IC50 (5 min) for assorted molecules

molecule	Coupled exchange IC50 (5 min)
C=CC(=O)N1CCN(c2nc(=O)n(-c3c(C(C)C)ccnc3C)c3nc(-c4ccccc4F)c(Cl)cc23)[C@@H](C)C1 (single isomer, unassigned) [Example 54-18-2]	0.729 | nda μM
C=CC(=O)N1CCN(c2nc(=O)n(-c3c(C)ccnc3C(C)C)c3nc(-c4c(O)cccc4F)c(C)cc23)[C@@H](C)C1 (single isomer, unassigned) [Example 74-3-2]	1.12 | nda μM
C=CC(=O)N1CCN(c2nc(=O)n(-c3c(C)nc(C)nc3C(C)C)c3nc(-c4c(O)cccc4F)c(Cl)cc23)[C@@H](C)C1 (single isomer, unassigned) [Example 55-4-1]	0.023 | nda μM
C=CC(=O)N1CCN(c2nc(=O)n(-c3c(C)ccnc3C(C)C)c3nc(-c4ccc(F)cc4F)c(F)cc23)[C@@H](C)C1 (single isomer, unassigned) [Example 58-10-1]	0.264 | nda μM
C=CC(=O)N1CCN(c2nc(=O)n(-c3ccnn3C3CCC3)c3nc(-c4ccccc4F)c(Cl)cc23)[C@@H](C)C1	0.406 | nda μM

Exercise: Look up and report measured Coupled exchange IC50 (5 min) for this entry: C=CC(=O)N1CCN(c2nc(=O)n(-c3c(C)ccnc3C(C)C)c3nc(-c4c(F)ccc(F)c4O)c(F)cc23)[C@@H](C)C1 (atropisomer, axis not shown; (M))
Key: 0.191 | nda μM

Exercise: Look up and report measured Coupled exchange IC50 (5 min) for this entry: C=CC(=O)N1CCN(c2nc(=O)n(-c3c(C)ccnc3C(C)C)c3nc(-c4nc(N)ccc4F)c(F)cc23)[C@@H](C)C1 (atropisomer, axis not shown; (M))
Key: 1.31 | nda μM

Exercise: Look up and report measured Coupled exchange IC50 (5 min) for this entry: C=CC(=O)N1CCN(c2nc(=O)n(-c3c(C)ccnc3C(C)C)c3nc(-c4ccccc4F)c(Cl)cc23)[C@@H](C(F)F)C1 (single isomer, unassigned)
Key: 0.094 | nda μM

Exercise: Look up and report measured Coupled exchange IC50 (5 min) for this entry: "C=CC(=O)N1CCN(c2nc(=O)n(-c3ncccc3C3(C#N)CC3)c3nc(-c4ccccc4F)c(Cl)cc23)[C@@H](C)C1"
Key: 32.1 | nda μM

Exercise: Look up and report measured Coupled exchange IC50 (5 min) for this entry: "C=CC(=O)N1CCN(c2nc(=O)n(CC(C)(C)C)c3nc(-c4ccccc4F)c(Cl)cc23)CC1"
Key: 1.85 µM

Exercise: Look up and report measured Coupled exchange IC50 (5 min) for this entry: C=CC(=O)N1CCN(c2nc(=O)n(-c3ccccc3C(C)(C)C)c3nc(-c4c(O)cccc4F)c(F)cc23)[C@@H](C)C1 (single isomer, unassigned) [Example 58-1-2]
Key: 0.572 | nda μM
